protocol.text: Tmax in rat at 10 mg/kg, po
Assay type: ADME, organism-based
measurement.conditions: in vivo
property.label: Tmax (h)
The reply should be a number in h, with the unit left off.

Value lookup for Tmax; key = Nc1nccc(Oc2ccc(Nc3nccc4ccn(-c5ccc(F)cc5)c(=O)c34)cc2F)c1Cl
1.2

Reported Tmax, molecule Cc1cc2ccnc(Nc3ccc(Oc4ccnc(N)c4I)c(F)c3)c2c(=O)n1-c1ccc(F)cc1 : ____
1.5

Which Tmax is reported for this molecule? Cc1cc2ccnc(Nc3ccc(Oc4ccnc(N)c4Cl)c(F)c3)c2c(=O)n1-c1ccc(F)cc1
2.3

###

protocol.text: Cmax in rat at 10 mg/kg, po
Assay type: ADME, organism-based
Parameters: dose 10 mg/kg, route oral
measurement.conditions: in vivo
property.label: Cmax

// returns reported Cmax for input Nc1nccc(Oc2ccc(Nc3nccc4ccn(-c5ccc(F)cc5)c(=O)c34)cc2F)c1Cl
1.6 µg/mL

Dear colleague, I am looking for the recorded Cmax of the following compound: Cc1cc2ccnc(Nc3ccc(Oc4ccnc(N)c4I)c(F)c3)c2c(=O)n1-c1ccc(F)cc1
2.7 µg/mL

# get_value(readout='Cmax', item= Cc1cc2ccnc(Nc3ccc(Oc4ccnc(N)c4Cl)c(F)c3)c2c(=O)n1-c1ccc(F)cc1 )
3.7 µg/mL

###

protocol.text: AUC (0 to infinity) in rat at 10 mg/kg, po
Assay type: ADME, organism-based
Set-up: dose 10 mg/kg, route oral, time infinity
measurement.conditions: in vivo
Could you please report measured AUC(0-inf) for the items listed next?
Please respond with the number in ng·h/mL and leave the unit unwritten.

Given the molecule Cc1cc2ccnc(Nc3ccc(Oc4ccnc(N)c4I)c(F)c3)c2c(=O)n1-c1ccc(F)cc1 , what is its reported AUC(0-inf)?
25700

Fill in: AUC(0-inf) of Nc1nccc(Oc2ccc(Nc3nccc4ccn(-c5ccc(F)cc5)c(=O)c34)cc2F)c1Cl is ___
6700

Query: AUC(0-inf); subject: Cc1cc2ccnc(Nc3ccc(Oc4ccnc(N)c4Cl)c(F)c3)c2c(=O)n1-c1ccc(F)cc1
21200

###

protocol.text: Half life in rat at 2.5 mg/kg, iv
Assay type: ADME, organism-based
measurement.conditions: in vivo
property.label: half-life (h)
Kindly answer with a numeric value in h, unit omitted.

Query: half-life; subject: Nc1nccc(Oc2ccc(Nc3nccc4ccn(-c5ccc(F)cc5)c(=O)c34)cc2F)c1Cl
3.2

Endpoint output: half-life of Cc1cc2ccnc(Nc3ccc(Oc4ccnc(N)c4Cl)c(F)c3)c2c(=O)n1-c1ccc(F)cc1 . Value?
7

Reported half-life, molecule Cc1cc2ccnc(Nc3ccc(Oc4ccnc(N)c4I)c(F)c3)c2c(=O)n1-c1ccc(F)cc1 : ____
4.2

###

Would you mind telling me the reported half-life of each entry?
protocol.text: Half life in rat at 10 mg/kg, po
Assay type: ADME, organism-based
measurement.conditions: in vivo
Value expressed in h; do not type the unit.

For the compound shown here, Cc1cc2ccnc(Nc3ccc(Oc4ccnc(N)c4I)c(F)c3)c2c(=O)n1-c1ccc(F)cc1 , give the reported half-life.
4.9

May I ask what half-life has been recorded for Cc1cc2ccnc(Nc3ccc(Oc4ccnc(N)c4Cl)c(F)c3)c2c(=O)n1-c1ccc(F)cc1 ?
11

Data request, read-out half-life, for Nc1nccc(Oc2ccc(Nc3nccc4ccn(-c5ccc(F)cc5)c(=O)c34)cc2F)c1Cl
5.1
